// merged dataset of pIC50 values, system = RNA-directed RNA polymerase (Hepacivirus hominis, UniProt O39930), multiple refs
Hey, just a heads up that pIC50 is the negative log base 10 of the concentration in molar.

- compound: "O=C(O)[C@H](Cc1ccccc1)N(Cc1ccc(-c2nccs2)cc1)C(=O)c1ccc(Cl)cc1Cl"
  tested_on: "RNA-directed RNA polymerase (Hepacivirus hominis, UniProt O39930)"
  pIC50: 5.24
- compound: "O=C(O)c1cnc(N(C(=O)c2ccc(OCc3ccccn3)cc2)C2CCCCC2)s1"
  tested_on: "RNA-directed RNA polymerase (Hepacivirus hominis, UniProt O39930)"
  pIC50: 4.82

Q: Given the entry Cn1cc(C(=O)c2ccc(F)cc2)cc1/C=C/C(O)=C/C(=O)C(=O)O , report its measured pIC50.
A: 4.80

Q: Given the entry CSc1ccc(-c2ccc(/C=C(\NC(=O)c3ccccc3)C(=O)O)o2)cc1 , report its measured pIC50.
A: 4.57

Q: Given the entry C#C[C@@]1(F)[C@H](O)[C@@H](COP(=O)(O)OP(=O)(O)OP(=O)(O)O)O[C@H]1n1ccc(=O)[nH]c1=O , report its measured pIC50.
A: 6.48

Q: Given the entry CCc1ccc(/C=C2/SC(NC(C(=O)O)c3ccc(F)cc3)=NC2=O)o1 (stereo not given) , report its measured pIC50.
A: 5.52

Q: Given the entry O=C(O)C(=O)/C=C(\O)c1ccco1 , report its measured pIC50.
A: 4.30

Q: Given the entry CCCOC(=O)N(CC(=O)O)C(=O)c1c(Br)ccc2c(C(F)(F)F)c(OC)ccc12 , report its measured pIC50.
A: 5.31

Q: Given the entry CC(C)(Oc1ccc2[nH]cc(C[C@H](NC(=O)c3ccc4c(c3)nc(-c3ccoc3)n4C3CCCCC3)C(=O)O)c2c1)C(=O)O , report its measured pIC50.
A: 7.00

Q: Given the entry O=C(O)C(=O)/C=C(\O)c1cccn1Cc1cccc(F)c1 , report its measured pIC50.
A: 4.52

----------
// merged dataset of pIC50 values, system = RNA-directed RNA polymerase (Hepacivirus hominis, UniProt O39930), multiple refs
Hey, just a heads up that pIC50 is the negative log base 10 of the concentration in molar.

Worked cases, answers included:
- smiles_repr: "Cc1ccc([C@H]2[C@@H](C(=O)O)C[C@@](CC(C)C)(C(=O)O)N2C(=O)c2ccc(C(F)(F)F)cc2)cc1"
  reported_result: 6.00
- smiles_repr: "CC(C)C[C@@]1(C(=O)O)C[C@H](C(=O)O)[C@H](c2ccccc2)N1C(=O)c1ccc(C(F)(F)F)cc1"
  reported_result: 6.15
- smiles_repr: "O=c1ccn([C@@H]2O[C@H](COP(=O)(O)OP(=O)(O)OP(=O)(O)O)[C@@H](O)[C@]23CCO3)c(=O)[nH]1"
  reported_result: 6.00

Could you now look at the following molecule, please?
Q: Record O=C(O)C(=O)/C=C(\O)c1cccc(OCc2cccc3ccccc23)c1 : what is its pIC50 with RNA-directed RNA polymerase (Hepacivirus hominis, UniProt O39930)?
A: 6.17

----------
// merged dataset of IC50 values, system = RNA-directed RNA polymerase (Hepacivirus hominis, UniProt O39930), multiple refs
// note: answer is a bare numeric in µM

Worked cases, answers included:
- smiles_repr: "Fc1ccc(CCNc2ncnc3nc(-c4ccc(F)cc4)c(-c4ccc(F)cc4)nc23)cc1"
  reported_result: 26
- smiles_repr: "N#Cc1c(Cl)cccc1COc1cccc(/C(O)=C/C(=O)C(=O)O)c1"
  reported_result: 0.11
- smiles_repr: "O=C(O)c1cnc(N(C(=O)c2ccc(OCc3ccccc3C(F)(F)F)cc2)C2CCCCC2)s1"
  reported_result: 5.1

Could you now look at the following compound, please?
Q: Record Cc1ccc(CNc2ncnc3nc(-c4ccc(F)cc4)c(-c4ccc(F)cc4)nc23)cc1 : what is its IC50 with RNA-directed RNA polymerase (Hepacivirus hominis, UniProt O39930)?
A: 9.6

----------
// merged dataset of IC50 values, system = RNA-directed RNA polymerase (Hepacivirus hominis), multiple refs
// note: answer is a bare numeric in µM

Worked cases, answers included:
- molecule: "CC(C)(C)[C@H]1CC[C@@H](N(C(=O)c2ccc(Oc3ccccc3)cc2)c2nc(C(=O)O)cs2)CC1 (stereo in doubt; trans)"
  display_unit: "µM"
  IC50: 4.7
- molecule: "O=C(O)/C(=C/c1ccc(Oc2ccccc2)cc1)NC(=O)c1ccccc1"
  display_unit: "µM"
  IC50: 17
- molecule: "NC(=O)c1ccc2[nH]cc(C[C@H](NC(=O)c3ccc4c(c3)nc(-c3ccoc3)n4C3CCCCC3)C(=O)O)c2c1"
  display_unit: "µM"
  IC50: 0.037
- molecule: "O=C(O)c1cnc(N(C(=O)c2ccc(OCc3ccccc3)cc2)C2CCCCC2)s1"
  display_unit: "µM"
  IC50: 6.5

Could you now look at the following molecule, please?
Q: Record O=C(O)/C(=C/c1ccc(-c2cccc(OC(F)(F)F)c2)o1)NC(=O)c1ccccc1 : what is its IC50 with RNA-directed RNA polymerase (Hepacivirus hominis)?
A: 66

----------
// merged dataset of IC50 values, system = RNA-directed RNA polymerase (Hepacivirus hominis), multiple refs
// note: answer is a bare numeric in nM

Worked cases, answers included:
- smiles_repr: "C[C@]1(O)[C@H](n2cnc3c(=O)[nH]c(N)nc32)O[C@](F)(COP(=O)(O)OP(=O)(O)OP(=O)(O)O)[C@H]1O"
  IC50, nM: 140
- smiles_repr: "O=C(O)C(=O)/C=C(\\O)c1cccc(NS(=O)(=O)c2cc(Cl)cc(Cl)c2)c1"
  IC50, nM: 140
- smiles_repr: "Cc1cc(C)c(-c2nc3cc(C(=O)O)ccc3n2C2CCCCC2)c(C)c1"
  IC50, nM: 120000
- smiles_repr: "O=C(Cc1ccc(Br)cc1)N/C(=C\\c1ccc(Oc2ccccc2Br)cc1)C(=O)O"
  IC50, nM: 820

Could you now look at the following molecule, please?
Q: Record O=C(O)C(=O)CC(=O)c1ccsc1 : what is its IC50 with RNA-directed RNA polymerase (Hepacivirus hominis)?
A: 4500

----------
// merged dataset of IC50 values, system = RNA-directed RNA polymerase (Hepacivirus hominis), multiple refs
// note: answer is a bare numeric in µM

Worked cases, answers included:
- molecule: "C[C@H]1CC[C@H](N(C(=O)c2ccc(Oc3ccccc3)cc2)c2ncc(C(=O)O)s2)CC1 (stereo in doubt; cis)"
  tested_on: "RNA-directed RNA polymerase (Hepacivirus hominis)"
  reported_property: "IC50"
  reported_result: 6.6
- molecule: "CC(C)CCN1C(=O)C(C2=NS(=O)(=O)c3ccccc3N2)=C(O)[C@@H]1Cc1ccccc1"
  tested_on: "RNA-directed RNA polymerase (Hepacivirus hominis)"
  reported_property: "IC50"
  reported_result: 3.57
- molecule: "O=C(O)/C(=C/c1ccc(-c2cccc(F)c2)o1)NC(=O)c1ccccc1"
  tested_on: "RNA-directed RNA polymerase (Hepacivirus hominis)"
  reported_property: "IC50"
  reported_result: 3.9

Could you now look at the following molecule, please?
Q: Record CCCC(C)Nc1ncnc2nc(-c3ccc(F)cc3)c(-c3ccc(F)cc3)nc12 (centres undefined) : what is its IC50 with RNA-directed RNA polymerase (Hepacivirus hominis)?
A: 1.5
